Taken from the supplement of paper PMC12042874.

- assay-text: amyloid nucleation score (Sup35N fusion, yeast selection) (log enrichment); library NNK2; higher = more nucleation; inactive = no reads after selection;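 also: zero at mode of non-aggregating sequences after 7 days selection at 30°C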
Quick rule: amyloid nucleation score of at least 0.03 means MET, below that means NOT MET.

[
  {
    "substance": "GGQDDVIGLRKSVMAENRVH",
    "assigned-class": "MET"
  },
  {
    "substance": "VRDDCARWK",
    "assigned-class": "MET"
  },
  {
    "substance": "DPSGYHVSFHSGDGGCEYC",
    "assigned-class": "MET"
  },
  {
    "substance": "ICPRRS",
    "assigned-class": "MET"
  },
  {
    "substance": "SFAYVMCLSG",
    "assigned-class": "NOT MET"
  },
  {
    "substance": "CVTQSR",
    "assigned-class": "NOT MET"
  },
  {
    "substance": "MTSENNWPNYTGLAPTPPAA",
    "assigned-class": "MET"
  },
  {
    "substance": "NYAQATRMFFNLMKSWLKMR",
    "assigned-class": "NOT MET"
  },
  {
    "substance": "LLTCTYMQF",
    "assigned-class": "NOT MET"
  },
  {
    "substance": "YGMSRNIGAVVWHFCG",
    "assigned-class": "NOT MET"
  },
  {
    "substance": "VKALNKLGAKINLMIRFVRS",
    "assigned-class": "NOT MET"
  },
  {
    "substance": "ITCVVLPLSRWDVHFKCSCH",
    "assigned-class": "MET"
  },
  {
    "substance": "LWREYLVHGSP",
    "assigned-class": "MET"
  },
  {
    "substance": "MAELLHKYGYKDAVRNIHPY",
    "assigned-class": "MET"
  },
  {
    "substance": "FDSSSESLGKGKCY",
    "assigned-class": "MET"
  },
  {
    "substance": "RCGSHMNLRYISAR",
    "assigned-class": "MET"
  },
  {
    "substance": "TYVMPSVVIKNCH",
    "assigned-class": "NOT MET"
  },
  {
    "substance": "LMVSRFVF",
    "assigned-class": "NOT MET"
  },
  {
    "substance": "RNAQDKESKIGTVSDSNHWV",
    "assigned-class": "MET"
  },
  {
    "substance": "WYLYFFVFLLHMNRNLFLVL",
    "assigned-class": "NOT MET"
  },
  {
    "substance": "TDALANSNRPSKFQVH",
    "assigned-class": "NOT MET"
  },
  {
    "substance": "HDRWNWGDCFVIDHALLLMG",
    "assigned-class": "MET"
  },
  {
    "substance": "CFIRFSRMGLFLFCLPKNLQ",
    "assigned-class": "NOT MET"
  },
  {
    "substance": "VHDQIPE",
    "assigned-class": "MET"
  },
  {
    "substance": "VTFYLGSSE",
    "assigned-class": "MET"
  },
  {
    "substance": "SVKWKTRDEKS",
    "assigned-class": "NOT MET"
  },
  {
    "substance": "DSSRRM",
    "assigned-class": "NOT MET"
  },
  {
    "substance": "NRYYYISSQGDDMQAGCFHY",
    "assigned-class": "NOT MET"
  },
  {
    "substance": "SSSFLL",
    "assigned-class": "NOT MET"
  },
  {
    "substance": "GLVGPSI",
    "assigned-class": "NOT MET"
  },
  {
    "substance": "ANPTADP",
    "assigned-class": "MET"
  },
  {
    "substance": "FLHVSRDLPYYYCFLV",
    "assigned-class": "NOT MET"
  },
  {
    "substance": "LYDWRWSWSRSATSSFGWLT",
    "assigned-class": "MET"
  },
  {
    "substance": "RRICTGFIRLVGYVYYAAHL",
    "assigned-class": "NOT MET"
  },
  {
    "substance": "RMYLRSIVKSLMAWQRLGRI",
    "assigned-class": "NOT MET"
  },
  {
    "substance": "CEGNGVFYGLPYSGSDIPNR",
    "assigned-class": "NOT MET"
  },
  {
    "substance": "IGVVILNHADSSLVTL",
    "assigned-class": "MET"
  },
  {
    "substance": "QFDWDRVYMFSTLPFCIWWV",
    "assigned-class": "NOT MET"
  },
  {
    "substance": "NCYRLWWPVLSTWWRFFI",
    "assigned-class": "MET"
  },
  {
    "substance": "YFVPKLYRVSFKLYKWCFKW",
    "assigned-class": "MET"
  },
  {
    "substance": "HCNLPDWVHGIYMSKS",
    "assigned-class": "MET"
  },
  {
    "substance": "HCLEMGCGLYNAR",
    "assigned-class": "MET"
  },
  {
    "substance": "VLNGRTEWTKQVDFIYFITD",
    "assigned-class": "NOT MET"
  },
  {
    "substance": "VDANIHWTCNSG",
    "assigned-class": "MET"
  },
  {
    "substance": "PMMYQRLCIMFFCSTITLMI",
    "assigned-class": "MET"
  },
  {
    "substance": "IWCSTGTFWLGGRLITLWRW",
    "assigned-class": "MET"
  },
  {
    "substance": "IINWPQLFKVASWTPSKTPP",
    "assigned-class": "NOT MET"
  },
  {
    "substance": "DKYAGCNSDDINWMKDRVSG",
    "assigned-class": "NOT MET"
  },
  {
    "substance": "LWCPVHRAYGYAIHSVKGAH",
    "assigned-class": "MET"
  },
  {
    "substance": "GSKNFPRPIPDYVWVFTGAI",
    "assigned-class": "MET"
  },
  {
    "substance": "FLILAHLGIKNYNWV",
    "assigned-class": "MET"
  },
  {
    "substance": "DSISNISDPCGFLGQESWVN",
    "assigned-class": "MET"
  },
  {
    "substance": "CEVFYSVGRSK",
    "assigned-class": "NOT MET"
  },
  {
    "substance": "LIYVATMWGNHSFYDLWDMQ",
    "assigned-class": "MET"
  }
]
